Source: PubChem BioAssay (NCATS)

max response listing for selected compounds.
Tested on: HaCat
Experiment: Cytotoxic Profiling of Annotated Libraries Using Quantitative High-Throughput Screening (AID 1296008); also: % is scaled to controls: 0 for no effect and ±100 for the full control effect; nearly all actives have a fitted effect of over 60% in size
Details: Five cell lines viability, CellTiter-Glo ATP luminescence, 48-72 h; stronger effect = lower value
Procedure: Cell-based phenotypic screening is a commonly used approach to discover biological pathways, novel drug targets, chemical probes and high-quality hit-to-lead molecules. […] A pintool (Kalypsys) was used to transfer 23 nL of compound solution to the 1536-well assay plates. […] Plates were left at room temperature for 10 min before imaging the ATP-coupled luminescence using a ViewLux microplate imager (PerkinElmer, Waltham, MA).
Results filed as inconclusive are left out.
metric: max response (%)

1. C=CC(=O)NCNC(=O)C=C : -16.1
2. COC(=O)[C@@H](N)CCCN=C(N)N[N+](=O)[O-] : -4.22
3. O=c1[nH]c2ccccc2n1C1CCN(Cc2ccc(-c3[nH]c4cc5ncnc5cc4nc3-c3ccccc3)cc2)CC1 : 0.8
4. CCNC(=O)C[C@@H]1N=C(c2ccc(Cl)cc2)c2cc(OC)ccc2-n2c(C)nnc21 : -10.8
5. O=C1CCC[C@@H]2[C@H]3CCCN4CCC[C@@H](CN12)[C@@H]34 : 3.98
6. Cc1cc(O)ccc1Cl : 2.83
